# test parameters: 298.15 K; Liquid; Ebulliometric method (Recirculating still)
parameter: vapor or sublimation pressure (kPa)
Respond numerically; units are kPa and should not be typed.

Which vapor or sublimation pressure is listed for CC(C)(C)Cl ?
40.13

Look up vapor or sublimation pressure: CCCCCl
13.52

So what does the record say about vapor or sublimation pressure for CCC(C)Cl (stereo not given) ?
20.91

Recorded vapor or sublimation pressure of CC(C)CCl , please.
20.35

Can you share its vapor or sublimation pressure? I mean this compound: CCCCCCC
6.095

----------
So I've got a bunch of molecules here, and I need their vapor or sublimation pressure values.
# test parameters: 288.15 K; Liquid; Ebulliometric method (Recirculating still)
± gives the expanded uncertainty stated by the source.
Report field: quantity (unit follows the number).

Give the measured vapor or sublimation pressure of CC(C)(C)Cl .
26.42 ± 0.11 kPa

Give its vapor or sublimation pressure value. Item: CCCCCCC
3.63 ± 0.1 kPa

What does the data say about its vapor or sublimation pressure? Entry: CCC(C)Cl (stereo not given)
13.36 ± 0.1 kPa

Recorded vapor or sublimation pressure of CCCCCl , please.
8.4 ± 0.1 kPa

Reported vapor or sublimation pressure, molecule CC(C)CCl : ____
13 ± 0.1 kPa

----------
# test parameters: 308.15 K; Liquid; Ebulliometric method (Recirculating still)
parameter: vapor or sublimation pressure (kPa)
Report the figure in kPa without appending any unit label.

Dear colleague, I am looking for the recorded vapor or sublimation pressure of the following compound: CC(C)CCl
30.45

Entry under review: CCC(C)Cl (stereo not given) . Reported vapor or sublimation pressure?
31.55

GET /values?readout=vapor or sublimation pressure&item= CCCCCCC
9.865

Could you tell me which vapor or sublimation pressure is on file for CCCCCl ?
21.04

Param item = CC(C)(C)Cl ; retrieve measured vapor or sublimation pressure.
59.52
